- assaySystem: human A1 receptor (Homo sapiens, UniProt P30542)
- Sequence (P30542 whole entry): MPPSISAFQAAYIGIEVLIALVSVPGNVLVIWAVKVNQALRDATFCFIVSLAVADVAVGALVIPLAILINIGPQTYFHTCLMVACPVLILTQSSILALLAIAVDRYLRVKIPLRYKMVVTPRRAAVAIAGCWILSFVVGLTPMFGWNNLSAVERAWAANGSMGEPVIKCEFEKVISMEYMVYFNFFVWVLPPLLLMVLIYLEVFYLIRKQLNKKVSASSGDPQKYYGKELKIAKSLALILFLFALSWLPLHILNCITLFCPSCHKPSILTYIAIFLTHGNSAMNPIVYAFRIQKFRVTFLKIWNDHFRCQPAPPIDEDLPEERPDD
- assayDetails: cAMP HTRF functional assay, recombinant CHO cells expressing human A1 receptor, forskolin and agonist CPA
IC50 values by entry

chemSmiles | IC50
COCCOc1cccc(-c2ccc(OC)c3nc(NC(=O)c4cnc(C)s4)cnc23)c1 | < 1000 nM
COc1ccc(-c2cnn(Cc3ccccn3)c2)c2ncc(NC(=O)N3CCC(C)(O)CC3)nc12 | < 1000 nM
COc1ccc(C2=CCOCC2)c2ncc(NC(=O)c3cnc(C)s3)nc12 | < 1000 nM
COc1ccc(C2=CCOCC2)c2ncc(NC(=O)N3CCC(C)(O)CC3)nc12 | < 1000 nM
COc1ccc(C2=CCOCC2)c2ncc(NC(=O)c3cnc[nH]3)nc12 | < 1000 nM
COc1ccc(-c2ccccc2)c2ncc(NC(=O)c3cnc(C)o3)nc12 | < 1000 nM

---

- assayDetails: pharmacokinetics in mouse after single intravenous and oral administration
- details: PK data in mouse, iv @ 0.2, excretion as % of dose
assayMetric: Feces iv [%]

compound | assayMetric | testValue
COc1ccc(N2CCOCC2)c2sc(NC(=O)N3CCC(C)(O)CC3)nc12 [Tozadenant, reference compound] | Feces iv [%] | 23 @ 0.2%
C#CCC1(O)CCN(C(=O)Nc2cnc3c(C4CCOCC4)ccc(OC)c3n2)CC1 | Feces iv [%] | 1.8 @ 0.2%
COc1ncc(-c2ccccc2)c2ncc(NC(=O)N3CCC(C)(O)CC3)nc12 | Feces iv [%] | 6.2 @ 0.2%
COc1ccc(-c2ccccc2)c2ncc(NC(=O)N3CCC(C)(O)CC3)nc12 | Feces iv [%] | 12.5 @ 0.2%
COc1ccc(C2CCOCC2)c2ncc(NC(=O)N3CCC(C)(O)CC3)nc12 | Feces iv [%] | 4.2 @ 0.2%

---

- assayDetails: pharmacokinetics in mouse after single intravenous and oral administration
- details: female, mouse, plasma, iv, 0.2 mg/kg
assayMetric: clearance (mL/min/kg)

chemSmiles | assayMetric | unitLabel | testValue
C#CCC1(O)CCN(C(=O)Nc2cnc3c(C4CCOCC4)ccc(OC)c3n2)CC1 | clearance | mL/min/kg | 18.2
COc1ccc(C2CCOCC2)c2ncc(NC(=O)N3CCC(C)(O)CC3)nc12 | clearance | mL/min/kg | 19.7
COc1ccc(-c2ccccc2)c2ncc(NC(=O)N3CCC(C)(O)CC3)nc12 | clearance | mL/min/kg | 5.65
COc1ncc(-c2ccccc2)c2ncc(NC(=O)N3CCC(C)(O)CC3)nc12 | clearance | mL/min/kg | 3.78

---

- assayDetails: pharmacokinetics in mouse after single intravenous and oral administration
- details: female, mouse, plasma, iv, 0.2 mg/kg
assayMetric: Vd (L/kg)

chemSmiles | testValue
COc1ccc(C2CCOCC2)c2ncc(NC(=O)N3CCC(C)(O)CC3)nc12 | 1.24
C#CCC1(O)CCN(C(=O)Nc2cnc3c(C4CCOCC4)ccc(OC)c3n2)CC1 | 0.811
COc1ncc(-c2ccccc2)c2ncc(NC(=O)N3CCC(C)(O)CC3)nc12 | 0.82
COc1ccc(-c2ccccc2)c2ncc(NC(=O)N3CCC(C)(O)CC3)nc12 | 1.13

---

- assaySystem: human A2A receptor (Homo sapiens, UniProt P29274)
- Construct: expressed in transfected cells; host or cells: HEK293
- Sequence (P29274 whole entry): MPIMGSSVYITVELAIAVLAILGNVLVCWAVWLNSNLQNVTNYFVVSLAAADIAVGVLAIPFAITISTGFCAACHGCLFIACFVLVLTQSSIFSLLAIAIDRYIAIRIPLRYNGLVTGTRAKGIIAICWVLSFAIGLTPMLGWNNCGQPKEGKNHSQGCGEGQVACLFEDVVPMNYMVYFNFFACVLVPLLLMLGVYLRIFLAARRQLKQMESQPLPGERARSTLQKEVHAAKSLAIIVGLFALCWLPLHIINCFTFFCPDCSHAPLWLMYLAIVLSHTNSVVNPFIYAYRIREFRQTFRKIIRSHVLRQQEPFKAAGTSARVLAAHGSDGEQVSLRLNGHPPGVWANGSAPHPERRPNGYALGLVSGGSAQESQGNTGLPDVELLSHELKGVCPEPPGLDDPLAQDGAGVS
- assayDetails: cAMP HTRF functional assay, recombinant HEK293 cells expressing human A2A receptor, agonist NECA
- Assay type: cell-based
pIC50: −log10 of the molar value.

compound | pIC50
COc1ccc(-c2ccccc2)c2ncc(NC(=O)N3CCC(C)(O)CC3)nc12 [compound 2] | > 7.00
COc1ccc(C2=CCOCC2)c2ncc(NC(=O)C3(CN(C)C)CC3)nc12 [compound 145] | > 7.00
COc1ccc(-c2ccccc2)c2ncc(NC(=O)c3cnc(C)o3)nc12 [compound 105] | > 8.00
COCCOc1cccc(-c2ccc(OC)c3nc(NC(=O)N4CCC(C)(O)CC4)cnc23)c1 [compound 117] | > 7.00
COCCOCCn1cc(-c2ccc(OC)c3nc(NC(=O)N4CCC(C)(O)CC4)cnc23)cn1 [compound 119] | > 7.00
COc1ccc(-c2cccnc2)c2nc(NC(=O)N3CCC(C)(O)CC3)cnc12 [compound 112] | > 7.00
CNC(=O)c1cc(-c2ccc(OC)c3nc(NC(=O)N4CCC(C)(O)CC4)cnc23)ccn1 [compound 115] | > 7.00
COCCOc1cccc(-c2ccc(OC)c3nc(NC(=O)C4CC4)cnc23)c1 [compound 147] | > 8.00
